Each recorded value in this set is attributed to the supplement of paper PMC10567573.

# maps each entry to its protein stability index
B1: COX4I1 (parent)
chain: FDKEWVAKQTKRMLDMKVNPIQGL

Variants of: B1
testMethodNotes: protein stability index of a GFP-peptide fusion (GPS, HEK-293T) (PSI 1-6); higher = more stable;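 further: lentivirally expressed fusions sorted by FACS into six bins by GFP to DsRed ratio, PSI derived from sequencing read proportions per bin multiplied by bin number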
measurementSetup: c terminus: a fixed tail appended
measurementName: protein stability index

>>> df
    mutationspec  observedmeasurement
 0          D15N                 1.58
 1          I21C                  2.6
 2           F1C                 2.62
 3          M13W                 1.56
 4          G23K                 2.02
 5          Q22K                 1.92
 6          G23E                 1.72
 7          K17N                 1.88
 8          V18D                 1.53
 9          I21P                 1.63
10          L24M                 1.74
11           E4T                 2.34
12          M16G                 2.13
13          M16P                 2.19
14           A7H                 1.74
15          K17I                  2.3
16           K8S                 1.75
17          R12C                 1.43
18           W5L                    3
19          K17T                 1.83
20           W5E                  3.6
21          L14G                 1.72
